Provenance of the data: patent US9540361B2

Test: Rapid Rat PK after oral administration
Assay type: in vivo, rats (Rattus Norvegicus)
Conditions: 20 umol/kg, AUC(0-6h), plasma, oral 20 μmol/kg, read-out: RRat AUC
The entries below come with measured AUC values attached.
Answer with a number only, understood to be in µM·h.

Worked examples follow.
| MOLECULE | OUTCOME MEASURE | MEASURED VALUE |
| --- | --- | --- |
| CCCN1CC(Oc2ccc(C(O)c3c(-c4ccccc4Cl)noc3-c3ccc(O)cc3)cc2)C1 (centres unmarked) [compound 7av] | AUC | 3.8 |
| CC(C)CN1CC(Oc2ccc(-c3c(-c4ccccc4Cl)noc3-c3ccc(O)cc3)cc2)C1.Cl [compound 7w] | AUC | 1.55 |
| Cl.Oc1ccc(-c2onc(-c3ccccc3Cl)c2-c2ccc(OC3CN(CC4CC4)C3)cc2)cc1 [compound 7y] | AUC | 1.2 |
| Cl.Oc1ccc(-c2onc(-c3ccccc3Cl)c2-c2ccc(OC3CN(CC4CCC4)C3)cc2)cc1 [compound 7z] | AUC | 1.03 |

Ask: AUC lookup needed for Cl.Oc1ccc(-c2onc(-c3ccccc3Cl)c2-c2ccc(OC3CN(CCCF)C3)cc2)cc1 [compound 7aa] , thanks.
Result: 3.58
